- Test target: human TLR9 (Homo sapiens)
- Construct: host or cells: HEK-Blue cells (HEK293-derived reporter line)
- Sequence (Q9NR96 26-1032): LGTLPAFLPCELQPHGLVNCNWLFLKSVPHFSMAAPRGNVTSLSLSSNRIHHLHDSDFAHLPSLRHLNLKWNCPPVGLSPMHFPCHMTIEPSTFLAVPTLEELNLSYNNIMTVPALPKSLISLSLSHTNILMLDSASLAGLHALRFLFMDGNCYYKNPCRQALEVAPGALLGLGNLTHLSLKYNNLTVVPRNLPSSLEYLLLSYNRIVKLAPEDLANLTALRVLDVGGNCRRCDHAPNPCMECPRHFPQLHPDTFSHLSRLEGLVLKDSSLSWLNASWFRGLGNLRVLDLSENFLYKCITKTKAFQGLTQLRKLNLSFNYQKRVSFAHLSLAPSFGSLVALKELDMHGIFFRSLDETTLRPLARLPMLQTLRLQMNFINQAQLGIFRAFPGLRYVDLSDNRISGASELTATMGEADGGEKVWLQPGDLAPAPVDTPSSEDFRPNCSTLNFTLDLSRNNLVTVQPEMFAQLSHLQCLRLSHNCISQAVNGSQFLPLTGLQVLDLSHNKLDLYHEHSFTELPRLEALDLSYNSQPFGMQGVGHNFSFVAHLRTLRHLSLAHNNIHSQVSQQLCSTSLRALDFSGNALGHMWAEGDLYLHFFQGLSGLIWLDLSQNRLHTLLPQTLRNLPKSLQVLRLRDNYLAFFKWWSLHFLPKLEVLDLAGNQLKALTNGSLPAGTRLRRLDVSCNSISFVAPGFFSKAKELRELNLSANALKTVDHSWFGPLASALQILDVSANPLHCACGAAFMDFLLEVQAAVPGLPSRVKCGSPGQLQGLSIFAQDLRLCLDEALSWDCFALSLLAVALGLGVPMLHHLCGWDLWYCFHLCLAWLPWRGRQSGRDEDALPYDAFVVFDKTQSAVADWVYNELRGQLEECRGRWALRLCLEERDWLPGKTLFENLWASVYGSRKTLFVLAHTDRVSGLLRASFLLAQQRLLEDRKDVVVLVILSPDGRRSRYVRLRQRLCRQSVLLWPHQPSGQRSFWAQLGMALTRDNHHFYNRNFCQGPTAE
- Assay details: TLR9 inhibition reporter assay (HEK-Blue cells, secreted embryonic alkaline phosphatase reporter)
- Assay type: cell-based
- Measurement context: HEK-Blue cells overexpressing human TLR9, stimulated with ODN2006 5 nM; read-out: TLR 9 IC50
pIC50: −log10 of the molar value.
Binary call on pIC50: TRUE from 7 upward, FALSE beneath that.

>>> df
                                    compound  discrete_label
 0  Cc1cc(-c2ccc(CN3CCN(C(C)C)CC3)cc2)cc2c1nc(-c1ccc(S(C)(=O)=O)cc1)n2C [Example 413]           FALSE
 1  Cc1cc2nc(-c3ccc(S(C)(=O)=O)cc3)n(C)c2cc1C1CCN(C2CCN(C(C)C)CC2)CC1 [Example 120]           FALSE
 2  COc1ccc(-c2nc3c(C)cc(C4CCN(C5CCNCC5)CC4)cc3[nH]2)cc1OC [Example 13, tris(2,2,2-trifluoroacetate)]           FALSE
 3  COc1ccc(-c2nc3c(C)cc(C4CC5CCC(C4)N5C4CCN(CC(C)C)CC4)cc3n2C)cc1OC (stereo not drawn) [Example 50]            TRUE
 4  Cn1c(-c2ccc(S(C)(=O)=O)cc2)nc2cc(C3CCN(C4CCN(C5COC5)CC4)CC3)c(F)cc21 [Example 244]           FALSE
 5  Cn1c(-c2ccc(S(C)(=O)=O)cc2)nc2cc(C3CCN(C4CC5CCC(C4)N5C4COC4)CC3)cc(F)c21 (single isomer, unassigned) [Example 214]           FALSE
 6  Cc1cc(C2CCN(C3CC4CCC(C3)N4C3CCC3)CC2)cc2[nH]c(-c3ccc(S(C)(=O)=O)c(F)c3)nc12 (stereo not drawn) [Example 349]            TRUE
 7  COc1ccc(-c2nc3ccc(C4CCN(C5CCN(C(C)C)CC5)CC4)cc3n2CC(F)F)cc1OC [Example 4]           FALSE
 8  Cn1c(-c2ccc(S(C)(=O)=O)cc2)nc2cc(C3CCN(C4CCN(C5COC5)CC4)CC3)cc(F)c21 [Example 206]           FALSE
 9  Cn1c(-c2ccc(S(C)(=O)=O)cc2)nc2c(F)c(C3CCN(C4CCN(C5COC5)CC4)CC3)ccc21 [Example 186]           FALSE
10  Cn1c(-c2ccc(S(C)(=O)=O)cc2)nc2cc(C3CCN(C4CC5CCC(C4)N5C4COC4)CC3)c(F)cc21 (single isomer, unassigned) [Example 253]           FALSE
